assayRemarks: DUSP6 inhibitors restoring Erk phosphorylation by chemical complementation, primary imaging in DUSP6-transfected HeLa (AID 609)
studyConditions: HeLa MKP-3 transfected, phospho-Erk imaging KS statistic; measured here: nuclear pErk red intensity z-score; at 10 µM; stronger effect = higher value; cells stimulated with TPA for 15 min
Values of z-score greater than or equal to -0.2 map to Condition met; values below map to Condition not met.

{"compound": "CN1CC=C2C(C#N)=C(N)C(C#N)(C#N)[C@H](c3cccc(Cl)c3)C2C1 (stereo partly specified)", "assignedCategory": "Condition met"}
{"compound": "N#Cc1c(N)sc(=S)c2c1CCCCC2", "assignedCategory": "Condition met"}

Incoming: Is z-score for CCOc1ccc(-n2c(SCc3ccc(C#N)cc3)nnc2-c2cccnc2)cc1 at or above -0.2?
Outgoing: Condition met

Incoming: Is z-score for CCCCCC1CC(CC#CCN2CCOCC2)C(=O)O1 (stereo unspecified) at or above -0.2?
Outgoing: Condition met

Incoming: Is z-score for O=C1C2CC=C(Cl)CC2C(=O)N1CNc1ccccn1 (stereo unspecified) at or above -0.2?
Outgoing: Condition not met

Incoming: Is z-score for c1coc(-c2nnc3sc(Cc4cccs4)nn23)c1 at or above -0.2?
Outgoing: Condition met

Incoming: Is z-score for Cc1nn(C)cc1C1C2=C(CC(C)(C)CC2=O)OC2=C1C(=O)CC(C)(C)C2 at or above -0.2?
Outgoing: Condition not met

Incoming: Is z-score for COc1cc(NC(=O)NC(C)(C(F)(F)F)C(F)(F)F)cc(OC)c1OC at or above -0.2?
Outgoing: Condition met

Incoming: Is z-score for Cc1ccc(-n2c(=O)c3c4c(sc3n3c(C)nnc23)COC(C(C)C)C4)cc1 (stereo unspecified) at or above -0.2?
Outgoing: Condition not met

Incoming: Is z-score for Cc1ccc(C(=O)/C=C/Nc2cccc(O)c2)cc1 at or above -0.2?
Outgoing: Condition met

Data provenance: PubChem BioAssay
